melting point overview

C[C@@H]1CN(c2ccc(-c3nnnn3C)cn2)C[C@H](C)N1CC(=O)N1CCc2nn(-c3ccccc3)cc2C1 [compound 86]    198 to 199 °C
O=C(CN1CC2CCC(C1)N2c1ccc(C(F)(F)F)cn1)N1CCc2nc(-c3ccncc3)sc2C1    183 to 185 °C
C[C@@H]1CN(c2ccc(C(F)(F)F)cn2)C[C@H](C)N1CC(=O)N1CCc2nc(-c3ccc(F)cc3)[nH]c2C1 [compound 124]    145 to 147 °C
O=C(CN1CC2CCC(C1)N2c1ncc(F)cn1)N1CCc2c(cnn2-c2ccccc2)C1    148 to 150 °C
O=C(CN1CCN(c2cncc(Cl)n2)CC1)N1CCc2nn(-c3ccc(C(F)(F)F)cn3)cc2C1 [compound 108]    185 to 186 °C
Cn1nnc(-c2ccc(N3C4CCC3CN(CC(=O)N3CCc5nn(-c6ccccc6)cc5C3)C4)nc2)n1    230 to 231 °C

[Q] Name the recorded melting point of the molecule listed here: COc1ccc(-n2cc3c(n2)CCN(C(=O)CN2CC4CCC(C2)N4c2ncc(F)cn2)C3)cc1
[A] 186 to 188 °C

[Q] Name the recorded melting point of the molecule listed here: COc1ccc(-c2nc3c(s2)CN(C(=O)CN2CCN(c4ccc(C(F)(F)F)cn4)C(=O)C2)CC3)cc1 [compound 34]
[A] 191 to 193 °C

====

Counter-ions that a name gives are not always drawn.
endpoint label: melting point

# count of solved cases: 3
O=C(CN1CC2CCC(C1)N2c1cccnc1)N1CCc2nn(-c3ccccc3)cc2C1    165 to 168 °C
O=C(CN1CC2CCC(C1)N2c1ccc(-c2noc(=O)[nH]2)cn1)N1CCc2nc(-c3ccccc3)sc2C1    215 to 218 °C
O=C(O)c1ccc(N2C3CCC2CN(CC(=O)N2CCc4nn(-c5ccccc5)cc4C2)C3)nc1 [compound 24]    202 to 206 °C

[Q] Name the recorded melting point of the molecule listed here: Cc1noc(-c2ccc(N3C[C@@H](C)N(CC(=O)N4CCc5nn(-c6ccccc6)cc5C4)[C@@H](C)C3)nc2)n1 [compound 91]
[A] 168 to 171 °C

[Q] Name the recorded melting point of the molecule listed here: O=C(CN1CC2CCC(C1)N2c1ncc(F)cn1)N1CCc2n[nH]cc2C1
[A] 122 to 123 °C

[Q] Name the recorded melting point of the molecule listed here: C[C@@H]1CN(c2ncc(C(=O)O)cn2)C[C@H](C)N1CC(=O)N1CCc2nc(-c3ccccc3)sc2C1 (as salt: sodium) [compound 72]
[A] 269 to 272 °C

[Q] Name the recorded melting point of the molecule listed here: O=C(CN1CC2CCC(C1)N2c1ccc(-c2noc(=O)[nH]2)cn1)N1CCc2nn(-c3ccccc3)cc2C1
[A] 176 to 179 °C

[Q] Name the recorded melting point of the molecule listed here: O=C(CN1CC2CCC(C1)N2c1ncc(F)cn1)N1CCc2c(cnn2-c2ccc(F)cc2)C1
[A] 151 to 152 °C

====

melting point overview

# count of solved cases: 3
C[C@@H]1CN(c2cccnc2)C[C@H](C)N1CC(=O)N1CCc2nn(-c3ccc(C(F)(F)F)cn3)cc2C1    196 to 197 °C
N#Cc1ccc(N2C3CCC2CN(CC(=O)N2CCc4nc(-c5ccc(F)cc5)sc4C2)C3)nc1    212 to 213 °C
O=C(CN1CCN(c2ccc(C(F)(F)F)cn2)C(=O)C1)N1CCc2nc(-c3ccc(F)cc3)[nH]c2C1    190 to 192 °C

[Q] Name the recorded melting point of the compound listed here: C[C@@H]1CN(c2ccc(C(=O)O)cn2)C[C@H](C)N1CC(=O)N1CCc2nc(-c3ccccc3)[nH]c2C1
[A] 190 to 192 °C

[Q] Name the recorded melting point of the compound listed here: C[C@@H]1CN(c2ccc(C(F)(F)F)cn2)C[C@H](C)N1CC(=O)N1CCc2cc(-c3ccccc3)oc2C1
[A] 162 °C

[Q] Name the recorded melting point of the compound listed here: C[C@@H]1CN(c2ccc(C(=O)O)cn2)C[C@H](C)N1CC(=O)N1CCc2nn(-c3ccccn3)cc2C1
[A] 147 to 150 °C

[Q] Name the recorded melting point of the compound listed here: O=C(CN1CC2CCC(C1)N2c1ncc(F)cn1)N1CCc2nc(-c3ccc(F)cc3)sc2C1
[A] 196 to 198 °C
